- CONDITION SET: 318.15 K; 101 kPa; Liquid; Oscillating disk viscometry
ASSAY ENDPOINT: viscosity (mPa·s)

[P] NC1CCCCC1 [cyclohexylamine]
[Q] C1=CCCCC1 [cyclohexene]
Identify the item whose viscosity is the smaller number: P or Q I would appreciate it if you answered with the label of your choice.
Q

[P] CN1CCCC1=O [N-methylpyrrolidone]
[Q] OC1CCCCC1 [cyclohexanol]
Identify the item whose viscosity is the smaller number: P or Q I would appreciate it if you answered with the label of your choice.
P

* * *

- CONDITION SET: 303.15 K; 101 kPa; Liquid; Vibrating tube method
ASSAY ENDPOINT: mass density (kg/m3)

[[record]]
smi = "C1=CCCCC1"
numeric_result = 801.81

[[record]]
smi = "NC1CCCCC1"
numeric_result = 857.71

[[record]]
smi = "OC1CCCCC1"
numeric_result = 941.32

[[record]]
smi = "CN1CCCC1=O"
numeric_result = 1023.45

